Numbers sourced from the supplement of paper PMC11451515.

# Tested on: NOMO1
# methodDescription: cell viability relative to DMSO control; higher = less cytotoxic
# conditionParameters: HPLM + 10% dialyzed FBS; 48 h; 0.0211 µM
Hi there, I'd appreciate the recorded cell viability for every entry that follows.
Give just the number in %; leave the unit off.

Data request: Given CC(N)C12CC3CC(CC(C3)C1)C2 (centres undefined) , state its recorded cell viability.
Data returned: 113

Data request: I have this compound here, CCC(C)(C)c1ccc(CC(C)CN2C[C@@H](C)O[C@@H](C)C2)cc1 (some centres undefined) , and I need its recorded cell viability.
Data returned: 82

Data request: Consider the compound `CC1(C)O[C@@H]2C[C@H]3[C@@H]4CCC5=CC(=O)C=C[C@]5(C)[C@H]4[C@@H](O)C[C@]3(C)[C@]2(C(=O)CO)O1` and give its measured cell viability.
Data returned: 90.7

Data request: Given the compound `S=P(N1CC1)(N1CC1)N1CC1` , what is its reported cell viability?
Data returned: 104

Data request: What does the record list as cell viability for `COC1=C2OC(=O)\C=C/C2=CC3=C1OC=C3` ?
Data returned: 116

Data request: I am curious: what cell viability value has been reported for `C[S+](=O)([O-])N1CCc2c(-c3cnc(N)nc3)nc(N3CCOCC3)nc21` ?
Data returned: 118

Data request: // lookup cell viability for `Cc1[nH]c2ccccc2c1CCNCc1ccc(/C=C/C(=O)NO)cc1`
Data returned: 99.9

Data request: Would you mind telling me what cell viability value was observed for `CC(C)C(=O)Nc1ccc([N+](=O)[O-])c(C(F)(F)F)c1` ?
Data returned: 128

Data request: What value of cell viability has been recorded for this entry: `CC/1=C(/N2[C@H](SC1)[C@H](NC(=O)[C@H](N)\C3=C\C\C=C/C3)C2=O)C(O)=O`
Data returned: 109

Data request: Could you share which cell viability value was measured for `O=C(O[C@H]1C[C@H]2CC[C@@H](C1)[N+]21CCCC1)C(O)(c1ccccc1)c1ccccc1.[Cl-]` ?
Data returned: 107

Data request: Given the entry `CNC(=O)c1ccc(N2C(=S)N(c3ccc(C#N)c(C(F)(F)F)c3)C(=O)C23CCC3)cc1F` , report its measured cell viability.
Data returned: 33.3

Data request: Looking for the measured cell viability of `FC(F)c1nc2ccccc2n1-c1nc(N2CCOCC2)nc(N2CCOCC2)n1` , can you help?
Data returned: 60.1

Data request: Would you mind telling me what cell viability value was observed for `COc1ccc(-c2ccc3c(N4CCOC[C@@H]4C)nc(N4CCOC[C@@H]4C)nc3n2)cc1CO` ?
Data returned: 82.1

Data request: GET /values?readout=cell viability&item= `Cc1cccc(Nc2nc(-c3ccncc3)cs2)c1`
Data returned: 142
